B1: DnaJ homolog subfamily C member 5, residues 16 to 77; numbered along this chain, Q9H3Z4 (parent)
chain: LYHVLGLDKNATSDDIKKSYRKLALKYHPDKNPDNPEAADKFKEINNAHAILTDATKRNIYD

Variants of: B1
METHOD_NOTES: abundance fitness (aPCA) (normalised: wild type 0, dead -1); higher = more abundant; growth selection in yeast, the domain comes from the species named
PROTOCOL_CONDITIONS: Homo sapiens
VALUE_TYPE: abundance fitness
Give the figure only, with no unit attached.

Worked examples, 10 variants total:
VARIANT: S13L
abundance fitness: -0.04
//
VARIANT: Y61L
abundance fitness: -0.09
//
VARIANT: L7H
abundance fitness: -0.54
//
VARIANT: D8T
abundance fitness: -0.309
//
VARIANT: E37L
abundance fitness: -0.172
//
VARIANT: K18Q
abundance fitness: -0.104
//
VARIANT: I45C
abundance fitness: -0.44
//
VARIANT: D54L
abundance fitness: -0.632
//
VARIANT: N35E
abundance fitness: -0.235
//
VARIANT: Y61F
abundance fitness: -0.273

Tell me its abundance fitness given `D30S` as the entry. 0.099

Tell me its abundance fitness given `D8N` as the entry. -0.277

Tell me its abundance fitness given `Y27K` as the entry. -0.379

Tell me its abundance fitness given `G6A` as the entry. -0.485

Tell me its abundance fitness given `A48Y` as the entry. -0.748

Tell me its abundance fitness given `A55E` as the entry. -0.061

Tell me its abundance fitness given `R58S` as the entry. -0.114

Tell me its abundance fitness given `D54N` as the entry. 0.044
